Please consider the recorded log10(Kd) for Mu-type opioid receptor (Mus musculus) in what follows.
Hey, these are logged values: log10 of Kd, nM being the unit before logging.

Past entries and their recorded results:
Cl.O=C(CCc1ccco1)N[C@H]1CC[C@@]2(O)[C@H]3Cc4ccc(O)c5c4[C@@]2(CCN3CC2CC2)[C@H]1O5    -0.14
Cl.O=C(/C=C/c1ccco1)N[C@H]1CC[C@@]2(O)[C@H]3Cc4ccc(O)c5c4[C@@]2(CCN3CC2CC2)[C@H]1O5    -0.28
CN(C(=O)/C=C/c1ccco1)[C@H]1CC[C@@]2(O)[C@H]3Cc4cccc5c4[C@@]2(CCN3CC2CC2)[C@H]1O5.Cl    1.23

Qu. State measured log10(Kd) of the molecule `CN(C(=O)/C=C/c1ccco1)[C@@H]1CC[C@@]2(O)[C@H]3Cc4cccc5c4[C@@]2(CCN3CC2CC2)[C@H]1O5.Cl` with Mu-type opioid receptor (Mus musculus).
Sequence (P42866 whole entry): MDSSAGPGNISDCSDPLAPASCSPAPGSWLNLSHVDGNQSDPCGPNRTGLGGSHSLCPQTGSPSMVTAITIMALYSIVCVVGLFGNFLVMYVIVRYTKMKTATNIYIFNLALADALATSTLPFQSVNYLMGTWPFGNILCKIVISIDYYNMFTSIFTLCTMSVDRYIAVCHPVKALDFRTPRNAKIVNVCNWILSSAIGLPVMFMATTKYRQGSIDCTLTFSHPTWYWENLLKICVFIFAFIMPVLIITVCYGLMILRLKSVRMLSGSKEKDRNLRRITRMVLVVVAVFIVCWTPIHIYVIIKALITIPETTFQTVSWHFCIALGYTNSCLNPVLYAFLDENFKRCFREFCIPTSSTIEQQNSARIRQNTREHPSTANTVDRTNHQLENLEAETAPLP
Ans. 2.33

Qu. State measured log10(Kd) of the molecule `Cl.O=C(CCc1ccco1)N[C@@H]1CC[C@@]2(O)[C@H]3Cc4cccc5c4[C@@]2(CCN3CC2CC2)[C@H]1O5` with Mu-type opioid receptor (Mus musculus).
Ans. 1.44

Qu. State measured log10(Kd) of the molecule `Cl.O=C(/C=C/c1ccco1)N[C@@H]1CC[C@@]2(O)[C@H]3Cc4ccc(O)c5c4[C@@]2(CCN3CC2CC2)[C@H]1O5` with Mu-type opioid receptor (Mus musculus).
Ans. -0.52

Qu. State measured log10(Kd) of the molecule `Cl.O=C(CCc1ccoc1)N[C@@H]1CC[C@@]2(O)[C@H]3Cc4cccc5c4[C@@]2(CCN3CC2CC2)[C@H]1O5` with Mu-type opioid receptor (Mus musculus).
Ans. 1.24

----------
- testTarget: Delta-type opioid receptor (Homo sapiens, UniProt P41143)
- Sequence (P41143 whole entry): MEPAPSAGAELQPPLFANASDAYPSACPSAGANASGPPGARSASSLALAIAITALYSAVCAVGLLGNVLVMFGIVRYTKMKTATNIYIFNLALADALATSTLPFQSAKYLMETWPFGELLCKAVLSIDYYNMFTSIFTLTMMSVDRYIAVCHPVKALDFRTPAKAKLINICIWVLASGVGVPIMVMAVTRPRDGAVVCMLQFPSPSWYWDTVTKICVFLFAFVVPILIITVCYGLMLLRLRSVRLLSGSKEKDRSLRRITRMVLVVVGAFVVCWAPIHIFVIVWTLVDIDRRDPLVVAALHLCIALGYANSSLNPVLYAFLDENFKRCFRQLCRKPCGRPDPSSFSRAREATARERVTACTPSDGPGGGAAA
- protocolText: Displacement of [3H]diprenorphine from human DOR expressed in CHO cells assessed as dissociation constant incubated for […] by radioligand binding assay
- Type: cell-based
resultType: pKd
The quantity pKd is defined as the negative base-10 logarithm of the molar concentration.

Past entries and their recorded results:
CN(C(=O)CCc1ccco1)[C@@H]1CC[C@@]2(O)[C@H]3Cc4ccc(O)c5c4[C@@]2(CCN3CC2CC2)[C@H]1O5.Cl    8.14
Cl.O=C(/C=C/c1ccco1)N[C@@H]1CC[C@@]2(O)[C@H]3Cc4ccc(O)c5c4[C@@]2(CCN3CC2CC2)[C@H]1O5    7.89

Consider the additional compound presented here.
Qu. Give the reported value of pKd for this record: `CN(C(=O)/C=C/c1ccco1)[C@@H]1CC[C@@]2(O)[C@H]3Cc4ccc(O)c5c4[C@@]2(CCN3CC2CC2)[C@H]1O5.Cl`
Ans. 8.10

----------
Please consider the recorded Kd for Kappa-type opioid receptor (Mus musculus) in what follows.
Give the number; nM is assumed, so skip it.

Cl.O=C(CCc1ccco1)N[C@H]1CC[C@@]2(O)[C@H]3Cc4cccc5c4[C@@]2(CCN3CC2CC2)[C@H]1O5    73.8

Qu. State measured Kd of the compound `CN(C(=O)CCc1ccco1)[C@H]1CC[C@@]2(O)[C@H]3Cc4ccc(O)c5c4[C@@]2(CCN3CC2CC2)[C@H]1O5.Cl` with Kappa-type opioid receptor (Mus musculus).
Sequence (P33534 whole entry): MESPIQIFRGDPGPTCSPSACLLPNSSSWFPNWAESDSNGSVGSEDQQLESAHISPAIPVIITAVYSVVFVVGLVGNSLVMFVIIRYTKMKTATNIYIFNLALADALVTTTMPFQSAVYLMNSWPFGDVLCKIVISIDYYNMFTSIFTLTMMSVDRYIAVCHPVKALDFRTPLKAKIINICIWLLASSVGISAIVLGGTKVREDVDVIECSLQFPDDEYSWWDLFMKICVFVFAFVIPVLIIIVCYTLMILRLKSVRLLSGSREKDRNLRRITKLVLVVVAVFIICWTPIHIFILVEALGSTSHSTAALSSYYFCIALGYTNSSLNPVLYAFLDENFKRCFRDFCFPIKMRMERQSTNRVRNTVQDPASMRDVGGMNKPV
Ans. 0.12

Qu. State measured Kd of the compound `CN(C(=O)CCc1ccoc1)[C@H]1CC[C@@]2(O)[C@H]3Cc4cccc5c4[C@@]2(CCN3CC2CC2)[C@H]1O5.Cl` with Kappa-type opioid receptor (Mus musculus).
Ans. 0.48
